Here, each record is paired with measured IC50 at 48 h data.
# ASSAY: Cell viability (cytotoxicity) assay
# Format: cell-based
# CONDITIONS USED: human, MDA-MB-231 cells, 48 h treatment

COc1ncc(-c2nc(C(=O)NC(=N)N)c(N)nc2N)cn1 = > 100 µM
N=C(N)NC(=O)c1nc(Cl)c(N2CCCOCC2)nc1N = 95.6 µM
N=C(N)NC(=O)c1nc(-c2cc3cc(F)ccc3o2)c(N)nc1N = 10.6 µM
N=C(N)NC(=O)c1nc(-c2cc3cc(F)cc(F)c3o2)c(N2CCCCCC2)nc1N = 8.8 µM
N=C(N)NC(=O)c1nc(-c2cc3cnccc3o2)c(N)nc1N = 26.4 µM
N=C(N)NC(=O)c1nc(-c2ccc(C(F)(F)F)cc2)c(N2CCCCCC2)nc1N = 14.7 µM
N=C(N)NC(=O)c1nc(Cl)c(N2CCCCCC2)nc1N [HMA, 5-(N,N-hexamethylene)amiloride, reference compound] = 32.1 µM
Cc1ccc2oc(-c3nc(C(=O)NC(=N)N)c(N)nc3N)cc2c1 = 11.7 µM

## Input I have this compound here, N=C(N)NC(=O)c1nc(-c2ccc(C(F)(F)F)cc2)c(N)nc1N , and I need its recorded IC50 at 48 h.
## Output 82.4 µM

## Input I have this compound here, N=C(N)NC(=O)c1nc(-c2cc3ccccc3o2)c(N2CCCC2)nc1N , and I need its recorded IC50 at 48 h.
## Output 22.7 µM

---

# ASSAYED SYSTEM: NHE1 (Homo sapiens)
# Construct: endogenous in cells; host or cells: MDA-MB-231
# Sequence (P19634 whole entry): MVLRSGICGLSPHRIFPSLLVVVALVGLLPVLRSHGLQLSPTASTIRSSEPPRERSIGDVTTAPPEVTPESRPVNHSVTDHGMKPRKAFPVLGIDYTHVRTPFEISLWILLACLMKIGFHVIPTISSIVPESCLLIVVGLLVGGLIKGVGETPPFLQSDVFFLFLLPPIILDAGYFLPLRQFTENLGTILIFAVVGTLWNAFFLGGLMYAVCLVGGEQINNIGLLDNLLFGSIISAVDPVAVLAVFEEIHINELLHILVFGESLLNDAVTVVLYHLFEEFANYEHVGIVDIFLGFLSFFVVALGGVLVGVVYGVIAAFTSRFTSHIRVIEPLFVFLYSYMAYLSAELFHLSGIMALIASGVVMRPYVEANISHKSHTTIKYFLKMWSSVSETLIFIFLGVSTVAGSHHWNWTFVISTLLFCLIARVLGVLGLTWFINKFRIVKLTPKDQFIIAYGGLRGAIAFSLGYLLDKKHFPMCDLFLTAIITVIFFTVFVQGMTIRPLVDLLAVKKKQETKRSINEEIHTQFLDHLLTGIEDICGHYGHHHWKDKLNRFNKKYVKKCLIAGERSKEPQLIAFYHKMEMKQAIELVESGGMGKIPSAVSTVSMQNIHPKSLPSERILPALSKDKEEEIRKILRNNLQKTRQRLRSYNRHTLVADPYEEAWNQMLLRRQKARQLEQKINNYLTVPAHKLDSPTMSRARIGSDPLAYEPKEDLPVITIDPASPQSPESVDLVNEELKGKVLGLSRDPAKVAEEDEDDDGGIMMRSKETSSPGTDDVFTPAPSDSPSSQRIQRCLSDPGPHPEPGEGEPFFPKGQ
# ASSAY: Cuvette-based NHE1 inhibition assay
# Assay type: cell-based
# CONDITIONS USED: Figure S1, n = 6 technical replicates/concentration; read-out: NHE1 IC50, cuvette assay
EXPERIMENTAL READOUT: IC50 (nM)
Please respond with the number in nM and leave the unit unwritten.

## Input I have this compound here, CC(=O)N1CCC(c2ccc(C(=O)NC(=N)N)cc2C(F)(F)F)CC1 [BI-9627, reference compound] , and I need its recorded IC50.
## Output 7.5

---

# ASSAYED SYSTEM: urokinase from human kidney cells (human uPA) (Homo sapiens, UniProt P00749)
# Construct: low molecular weight active human uPA; purchased Sigma-Aldrich U4010; host or cells: human kidney cells
# ASSAY: uPA inhibition assay (fluorescence-based, purified enzyme)
# Assay type: biochemical
# CONDITIONS USED: purified enzyme, Z-Gly-Gly-Arg-AMC substrate; number in parentheses after value; read-out: uPA IC50
Rule: measured IC50 below 1000 nM gets T; anything equal to or greater than 1000 nM gets F.

# count of solved cases: 7
N=C(N)NC(=O)c1nc(I)c(N)nc1N = F
N=C(N)NC(=O)c1nc(-c2cc3ncccc3o2)c(N2CCCC2)nc1N = T
N=C(N)NC(=O)c1nc(-c2cc3cc(F)ccc3o2)c(N)nc1N = T
N=C(N)NC(=O)c1nc(-c2cc3cc(Br)ccc3o2)c(N)nc1N = F
COc1ncc(-c2nc(C(=O)NC(=N)N)c(N)nc2N2CCCCCC2)cn1 = T
N=C(N)NC(=O)c1nc(-c2cc3ccccc3o2)c(NC2CCCCCC2)nc1N = F
N=C(N)NC(=O)c1nc(-c2cc3cc(Cl)ccc3o2)c(N)nc1N = T

## Input Take the compound COc1ncc(-c2nc(C(=O)NC(=N)N)c(N)nc2N2CCCOCC2)cn1 and say whether its IC50 is less than 1000 nM.
## Output T
